Each entry belongs to exactly one class, chosen by where its melting point falls: lower range: < 4 °C; middle range: ≥ 4 °C and < 70 °C; upper range: ≥ 70 °C

> print(dat)
                                    compound  assigned.class
 1                       Cc1ccc(C(C)C)c(C)c1     lower range
 2                  Brc1cc(Br)c(Br)c(Br)c1Br     upper range
 3          CCCCCCOC(=O)c1ccccc1C(=O)OCCCCCC     lower range
 4                      CCCCCCCCCCCCCCC(=O)O    middle range
 5                              CC(C)=CC(C)C     lower range
 6                         COc1ccc(C=O)cc1OC    middle range
 7          Fc1cc2c(cc1F)Oc1cc(Br)c(Br)cc1O2     upper range
 8                            COc1ccc(Br)cc1    middle range
 9                           COC(=O)c1cccnc1    middle range
10  O=C(O)C1C(C(=O)O)C2(Cl)C(Cl)=C(Cl)C1(Cl)C2(Cl)Cl (centres undefined)     upper range
11                        Cc1ccc(C)c2ncccc12    middle range
12                    O=C(Cl)c1ccccc1C(=O)Cl    middle range
13                            c1ccc2ncccc2c1     lower range
14                      COC(=O)c1cc(Cl)ccc1O    middle range
15  CC(=O)NC(Cc1ccccc1)C(=O)O (stereo in doubt)     upper range
16         CC(C)N(C(=O)SCC(Cl)=C(Cl)Cl)C(C)C    middle range
17                           Cc1cc(N)cc(C)n1     upper range
18                           CCOC(=O)CC(C)=O     lower range
19         Oc1ccc2ccccc2c1-c1c(O)ccc2ccccc12     upper range
20                          Cc1ccc(C)c(Cl)c1     lower range
21  FC(F)(F)C(F)(F)C(F)(F)C(F)(F)OC(F)(F)C(F)(F)C(F)(F)C(F)(F)F     lower range
22               O=C(c1ccc(O)cc1)c1ccc(O)cc1     upper range
23              COc1ccc(C(=O)c2ccccc2)c(O)c1    middle range
24                        c1ccc(C2CCNCC2)cc1    middle range

* * *

Examples of compounds with documented log10 BCF follow.
ASSAY CONTEXT: fish
MEASURED METRIC: log10 BCF

> print(dat)
                                   compound  quantitative.result
1                           Oc1cccc(Cl)c1Cl                 1.13
2                            CCOc1ccc(N)cc1                    1
3                          Clc1cccc(Cl)c1Cl                 2.82
4  O=C(O)C1C(C(=O)O)C2(Cl)C(Cl)=C(Cl)C1(Cl)C2(Cl)Cl (centres undefined)                 0.32
